# Test system: SK-MEL-2 melanoma
# assay_text: NCI tumour cell line growth inhibition, 48 h
For each of the molecules below, state its TGI.

Given COc1ncc2cc1NS(=O)(=O)c1cccc(c1)C(=O)NCC1=CC=C(S1)c1ncnc3c1SC2=C3C , state its recorded TGI. 1.15 µM

Entry c1csc(C(NC2=NCCO2)C2CC2)c1 (stereo unspecified) please > 100 µM

What do you get for O=C(Nc1ccc(Br)cc1)Nc1cccc(Br)c1 ? > 100 µM

Repeat with O=C1c2ccccc2-n2c1nc1ccc(Cl)cc1c2=O > 100 µM

# iterate: COc1cccc(/C=N/[N-]C(N)=O)c1[O-].[OH3+].[Pd+2] > 100 µM

Same read-out for O=C(Nc1nc2c(s1)CCc1c-2c(Br)n(Cc2ccccc2)c1Br)c1ccccc1 ? 19.6 µM

Taken from PubChem BioAssay (NCI).
